B1: TPR t1 (parent)
chain: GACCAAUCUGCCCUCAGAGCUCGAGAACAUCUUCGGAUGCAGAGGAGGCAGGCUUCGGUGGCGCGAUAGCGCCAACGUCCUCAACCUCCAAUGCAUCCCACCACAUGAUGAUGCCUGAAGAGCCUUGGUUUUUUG

# Variants of: B1
# assay: polymerase ribozyme fitness, log enrichment relative to wild type (log ratio); higher = more active; in vitro selection for triplet polymerase activity
Where polymerase ribozyme fitness (log ratio) equals or exceeds -1, the correct label is y; where it does not, the label is n.

Data request: Form field: polymerase ribozyme fitness (log ratio) at least -1? Entry: GACCAAUCUGCCCUCAGAGCUCGAGAACAUUUUCGGAUGCAGAGGAGGCAGGUUUCGGUGGCGCGAUAGCGCCAACGUCCUCAACCUCCAAUGCAUCCCACCACAUGAUGAUGCCUGAAGAGCCUUGGUUUUUUG [C31U C53U]
Data returned: n

Data request: Form field: polymerase ribozyme fitness (log ratio) at least -1? Entry: GACCAAUCUACCCUCAGAGCUCGAGAACAUCUUCGGAUGCAGAGGACGCAGGCUUCGGUGGCACGAUAGCGCCAACGUCCUCAACCUCCAAUGCAUUCCAAUACAUGAUGAUGCCUGAAGAGCCUUGGUUUUUUG [G10A G47C G63A C97U C101A C102U]
Data returned: n

Data request: Form field: polymerase ribozyme fitness (log ratio) at least -1? Entry: GACCAAUCGGCCCUCAGAGCUCGAGAACGUCUUCGGAUGCAGAGGAGGCAGGCUUCGGUGGCGCGAUAGCGCCAACGUCCUCAACCUCCAAUGCAUCCCACCACAUGAUGAUGCCUGAAGAGCCUUGGUUUUUUG [U9G A29G]
Data returned: n

Data request: Form field: polymerase ribozyme fitness (log ratio) at least -1? Entry: GACCAAUCUGCCCUCAGAGCUCGAGAACAUCUUCGGAUGCCGAGGAGGCAGGCUUCGGUGGCGCGAUAGCGCCAACGUCCUCAACCUCCAAUGCAUCCCACCACAUGAUGAUACCUGAAGAGCGUUGGUUUUUUG [A41C G113A C124G]
Data returned: n

Data request: Form field: polymerase ribozyme fitness (log ratio) at least -1? Entry: GACCAAUCUGCCCUCAGAGCUCGAGAACAUCUUCGGAUGCAGAGGAGGCAGUCUUCGGUGGCGCGAUAGCGCCAACCUCCUCAACCUCCAAUGCAUCCCACCACAUGAUGAUGCCUGAAGAGCCUUGGUUUUUUG [G52U G77C]
Data returned: y

Data request: Form field: polymerase ribozyme fitness (log ratio) at least -1? Entry: GACCAAUCUGCCCUCAGAGCUCGAGAACAUCUUCGGAUGCAAAGGAAGCAGGCUUCGGUGGCGCGAUAGCGCCAACGUCCUCAACCUCCAAUGCAUCCCACCACAUGAUGAAGCCUGAAGAGCCUUGGUUUUUUG [G42A G47A U112A]
Data returned: n

Data request: Form field: polymerase ribozyme fitness (log ratio) at least -1? Entry: GACCAAUCUGCCCUCAGAGCUCGAGAACAUCUUCGGAUGCAUAGGAGGCAGGCUUCGGUGGCGCGAUAGUGCCAACGUCCUCAACCUCCAAUGCAUCCCACCACAUGAUGAUGCCUGAAGAGCCUUGGUUUUUUG [G42U C70U]
Data returned: n

Data request: Form field: polymerase ribozyme fitness (log ratio) at least -1? Entry: GACCAAUCUGCCCUCAGAGCUCGAGAACAUCUUCGGAUGCAGAGGAGGCAGGCUUCGGUGGCGCGAUAGCGCCAACGUCCUCAACCUCCGAUGCGUCCCACCACAUGAUGAUGCCUGAAGAGCCUUGGUUUUGUG [A90G A95G U133G]
Data returned: y

Data request: Form field: polymerase ribozyme fitness (log ratio) at least -1? Entry: GACCAAUCUGCCCUCAGAGCUCGAGAACAGCUUCGGAUGCAGAGGAGGCAGGCUUCGGUGGCGCGAUAGCGCCAACGUCCUCAACCUCCAAUGCAUCCCACCACAUGAUGAUGCAUGAAGAGCCUUGGUUUUUUG [U30G C115A]
Data returned: n

Data request: Form field: polymerase ribozyme fitness (log ratio) at least -1? Entry: GACCAAUCUGCCCUCAGAGCUCGAGAACAUCUUCGGAUGCAGAGGAGGCAGGCUUCGGUGGCGCGAUAGCGCCAACGUCCUCAACCUCCAAUGCAUCCCACCACAUGAUAAUGCAUGAAGAGCCUUGGUUUUUUG [G110A C115A]
Data returned: n

Data request: Form field: polymerase ribozyme fitness (log ratio) at least -1? Entry: GACCAAUCUGCCCUCAGAGCUCGAGAACAUCUUCGGAUGCAGAGGAGGCAGGCUGCGGUGGCUCGAUAGCGCCAACGUCCUCAACCUCCAAUGCAUCCCACCACAUGGUGAUGCCUGAAGAGCCUUGGUUUUUUG [U55G G63U A108G]
Data returned: n

Data request: Form field: polymerase ribozyme fitness (log ratio) at least -1? Entry: GACCAAUCUGCCCUCAGAGCUCGAGAACAUCUUAGGAUGCAGAGGAGGCAGGCUUCGGUGGCGCGAUAGCGCCAACGUCCUCAACCUCCAAUGCAUCCCACUACAUGAUGAUGCCUGAAGAGCCUUGGUUUUUUG [C34A C102U]
Data returned: n

Data request: Form field: polymerase ribozyme fitness (log ratio) at least -1? Entry: GACCAAUCUGCCCUCAGAGCUCGAGAACAUCUUCGGAUGCAGAGGAGGCAGGCUUCGGUGGCGCGAUAGCGCCAACGUCCUCAACCUCCAAUUCAUCCCACCAAAUGAUGAUGCCUGAAGAGCCUUGGUUUUUUG [G93U C104A]
Data returned: n

Data request: Form field: polymerase ribozyme fitness (log ratio) at least -1? Entry: GACCAAUCUGACCUCAGUGCUCGAGGACAUCUUCGGAUUCAAAGAAGGCAGGCUUCGGUAGCGCGAUAGCGCCAACGUCCUCAACCUCCAAUGCAUCCCACCACAUGAUGAUGCCUGAAGAGCCUUGGUUUUAUG [C11A A18U A26G G39U G42A G45A G60A U133A]
Data returned: n

Data request: Form field: polymerase ribozyme fitness (log ratio) at least -1? Entry: GACCAAUCUGCUCUCAGAGCUCGAGAACAUCUUCGGAUGCAGAGGAGGCAGGCUUCGGUGGCGCGAUAGCGCCAACGUCCUCAACCUCCAAUGCAUCUCACCACAUGAUGAUGCCUGAAGAGCCUUGGUUUUUUG [C12U C98U]
Data returned: y

Data request: Form field: polymerase ribozyme fitness (log ratio) at least -1? Entry: GACCAAUCUGCCCUCAGAGCUCGAGAACAUCUCCGGAUGCAGAGGAGGCAGGCUUCGGUGGCGCGAUAGCGCCAACGUGCUCAACCUCCAAUGCAUCCCACCACAUGAUGUUGCCUGAAGAGCCUUGGUUUUUUG [U33C C79G A111U]
Data returned: n

Data request: Form field: polymerase ribozyme fitness (log ratio) at least -1? Entry: GACCAAUCUGCCCUCAGAGCUCGAGAACAUCUUCGGAUGCAGAGGCGGCAGGCUUCGGUGGCGCGAUAUCGCCAACGUCCUCAACCUCCAAUGCAUCCCACCACAUGAUGAUGCCUGAAGAGCCUUGGUUUUUUU [A46C G69U G135U]
Data returned: y

Data request: Form field: polymerase ribozyme fitness (log ratio) at least -1? Entry: GACCAAUCUGCCCUCAGAGCUCGAGAACAUCUUCGGAUGCAGAGGAGGCAGGCUUCGGUGGCGCGAUAGCGCCAACGCCCUCAACCUCCAAUGCAUCCCACCACAUGAUGAUGCCUGAAGAGCCUUGGUGUUUUG [U78C U130G]
Data returned: y

Data request: Form field: polymerase ribozyme fitness (log ratio) at least -1? Entry: GACCAAUCUGCCCUCAGAGCUCGAGAACAUCUUCGGAUGCAGAGGAGGCAGGAUUCGGUGGCGCGAUAGCGGCAACGUCCUCAACCUCCAAUGCAUCCCACCACAUGAUGAUGCCUGAAGAGCCUUGGUUUUUUG [C53A C72G]
Data returned: y

Data request: Form field: polymerase ribozyme fitness (log ratio) at least -1? Entry: GACCAAUCUGCCCUCAGAGCUCGAGAACAUCUUCGGAUGCAGAGGAGGCAGGCUUCGGUGGCGCGAUAGCGCCAACUUACUCAACCUCCAAUGCAUCCCACCACAUGAUGAUGCCUGAAGAGCCUUGGUUUUUUG [G77U C79A]
Data returned: n

Data request: Form field: polymerase ribozyme fitness (log ratio) at least -1? Entry: GACCAAUCUGCCCUCAGAGCUCGAGAACUUCUUCGGAUGUAGAGGAGGCAGGCUUCGGUGGAGCGAUAGCGCCAACGUCCUCCACCUCCAAUGCAUCCCACCACAUGAUGAUGCCUGAAGAGCCUUGGUUUUUUG [A29U C40U C62A A83C]
Data returned: n

Data request: Form field: polymerase ribozyme fitness (log ratio) at least -1? Entry: GACCAAUCUGCCCUCAGAGCUCGAGAACAUCUUCGGAUGCAGAGGAGGAAGGCUUCGGUGGCGCGAUAGCGCCAACGUCCUCAACCUGCAAUGCAUCCCACCACAUGAUGAUGCCUGAACAGCCUUGGUUUUUUG [C49A C88G G120C]
Data returned: y
